- TARGET_OF_ASSAY: EGFR mutant L858R (Homo sapiens, UniProt P00533, L858R)
- Construct: truncated human JAK3, EGFR mutants such as del E746-A750; purchased Carna Biosciences
- Sequence (P00533 669-1210 L858R limits assumed): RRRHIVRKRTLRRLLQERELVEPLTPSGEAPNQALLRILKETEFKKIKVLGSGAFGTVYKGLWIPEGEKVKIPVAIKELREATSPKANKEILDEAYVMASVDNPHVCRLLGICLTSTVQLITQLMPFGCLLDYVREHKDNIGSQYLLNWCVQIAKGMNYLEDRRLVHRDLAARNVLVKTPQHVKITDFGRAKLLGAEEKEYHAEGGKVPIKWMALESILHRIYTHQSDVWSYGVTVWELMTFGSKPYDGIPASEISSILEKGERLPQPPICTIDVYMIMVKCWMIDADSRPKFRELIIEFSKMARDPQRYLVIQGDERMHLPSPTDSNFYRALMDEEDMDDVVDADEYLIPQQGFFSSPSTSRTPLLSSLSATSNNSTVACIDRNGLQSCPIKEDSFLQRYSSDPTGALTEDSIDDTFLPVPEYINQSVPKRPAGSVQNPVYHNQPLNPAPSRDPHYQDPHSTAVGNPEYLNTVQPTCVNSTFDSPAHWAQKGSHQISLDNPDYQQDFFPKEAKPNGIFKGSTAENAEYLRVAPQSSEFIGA
- ASSAY_NAME: Kinase inhibition assay, EGFR L858R
- Type: biochemical
- CONDITION_DETAILS: read-out: EGFR mutants L858R
The entries below are paired with their reported IC50.

Solved entries (count: 2):
> print(dat)
                                   molecule                           target.of.assay  readout.value
1  C=CC(=O)Nc1cc(Nc2nccc(-n3cc(CN(C)C)c(-c4ccccc4)n3)n2)c(OC)cc1N(C)C  EGFR mutant L858R (Homo sapiens, UniProt P00533, L858R)        < 20 nM
2  C=CC(=O)Nc1cc(Nc2ncc(C)c(-n3cc(CN4CCC4)cn3)n2)c(OC)cc1N1CCN(C)CC1  EGFR mutant L858R (Homo sapiens, UniProt P00533, L858R)        < 20 nM

Given the molecule C=CC(=O)Nc1cc(Nc2nccc(-n3cc(CN4CCC4)c(C)n3)n2)c(OC)cc1C1=CCN(C)CC1 , what is its reported IC50? < 20 nM

Value lookup for IC50; key = C=CC(=O)Nc1cc(Nc2ncc(C)c(-n3cc(CN4CCC4)c(C(C)C)n3)n2)c(OC)cc1N1CCOCC1 < 20 nM

Need IC50, item CCC(=O)Nc1cc(Nc2nccc(-n3cc(CN(C)C)c(-c4ccccc4)n3)n2)c(OC)cc1N1CCOCC1 [Compound 157, reference compound] > 1000 nM

Please report the recorded IC50 for C=CC(=O)Nc1cc(Nc2nccc(-n3cc(CN4CCC4)c(C4CC4)n3)n2)c(OC)cc1N1CCC1 . < 20 nM

What IC50 value was documented for this molecule, C=CC(=O)Nc1cc(Nc2ncc(C)c(-n3cc(CN4CCC4)c(-c4ccccc4)n3)n2)c(OC)cc1N1CCOCC1 ? < 20 nM

Consider the molecule shown here: C=CC(=O)Nc1cc(Nc2nccc(-n3cc(CN(C)CC)c(C)n3)n2)c(OC)cc1N1CCOCC1 What is its recorded IC50? < 20 nM

Which IC50 value belongs to C=CC(=O)Nc1cc(Nc2nccc(-n3cc(CN(C)CC)c(C4CC4)n3)n2)c(OC)cc1N1CCOCC1 ? < 20 nM

----------
- TARGET_OF_ASSAY: EGFR mutant L858R (Homo sapiens, UniProt P00533, L858R)
- Construct: truncated human JAK3, EGFR mutants such as del E746-A750; purchased Carna Biosciences
- ASSAY_NAME: Kinase inhibition assay, EGFR L858R
- Format: biochemical
- CONDITION_DETAILS: read-out: EGFR mutants L858R
Listed below: IC50 values for each entry.

Sample answers from the record:
> print(dat)
                                   compound                           target.of.assay  readout.value
1  COc1cc(N2CCOCC2)c([N+](=O)[O-])cc1Nc1nccc(-n2cc(CN(C)C)c(-c3ccccc3)n2)n1 [Compound 152, reference compound]  EGFR mutant L858R (Homo sapiens, UniProt P00533, L858R)      > 1000 nM
2  C=CC(=O)Nc1cc(Nc2nccc(-n3cc(CN4CCC4)c(C4CC4)n3)n2)c(OC)cc1N(C)CCOC  EGFR mutant L858R (Homo sapiens, UniProt P00533, L858R)        < 20 nM
3  C=CC(=O)Nc1cc(Nc2ncc(F)c(-n3cc(CN4CCC4)c(C)n3)n2)c(OC)cc1N1CCOCC1  EGFR mutant L858R (Homo sapiens, UniProt P00533, L858R)        < 20 nM
4  C=CC(=O)Nc1cc(Nc2nccc(-n3cc(CN(C)C)c(C(C)C)n3)n2)c(OC)cc1N1CCOCC1  EGFR mutant L858R (Homo sapiens, UniProt P00533, L858R)        < 20 nM
5  C=CC(=O)Nc1cc(Nc2ncc(Cl)c(-n3cc(CN(C)C)cn3)n2)c(OC)cc1N1CCOCC1  EGFR mutant L858R (Homo sapiens, UniProt P00533, L858R)        < 20 nM

What does the data say about its IC50? Entry: C=CC(=O)Nc1cc(Nc2nccc(-n3cc(CN(C)CC)c(-c4ccccc4)n3)n2)c(OC)cc1N1CCOCC1 < 20 nM

----------
- TARGET_OF_ASSAY: EGFR mutant L858R (Homo sapiens, UniProt P00533, L858R)
- Construct: truncated human JAK3, EGFR mutants such as del E746-A750; purchased Carna Biosciences
- ASSAY_NAME: Kinase inhibition assay, EGFR L858R
- Format: biochemical
- CONDITION_DETAILS: read-out: EGFR mutants L858R
OUTCOME_MEASURE: IC50

Illustrative cases are given below, each with its answer.
> print(dat)
                                 smiles.str                           target.of.assay   readout.value
1  C=CC(=O)Nc1cc(Nc2ncc(C)c(-n3cc(CN4CCC4)cn3)n2)c(OC)cc1N1CCCOCC1  EGFR mutant L858R (Homo sapiens, UniProt P00533, L858R)  0.02 to 0.2 µM
2  C=CC(=O)Nc1cc(Nc2ncc(C)c(-n3cc(CN(C)C)cn3)n2)c(OC)cc1N1CCOCC1  EGFR mutant L858R (Homo sapiens, UniProt P00533, L858R)  0.02 to 0.2 µM
3  C=CC(=O)Nc1cc(Nc2ncc(C)c(-n3cc(CN4CCC4)cn3)n2)c(OC)cc1N(C)CCN(C)C  EGFR mutant L858R (Homo sapiens, UniProt P00533, L858R)  0.02 to 0.2 µM
4  C=CC(=O)Nc1cc(Nc2nccc(-n3cc(CN(C)C)c(C(C)C)n3)n2)c(OC)cc1N(C)C1COC1  EGFR mutant L858R (Homo sapiens, UniProt P00533, L858R)       < 0.02 µM

Continue with the compound presented below.
Quick one: IC50 of C=CC(=O)Nc1cc(Nc2nccc(-n3cc(CN4CCC4)cn3)n2)c(OC)cc1N1CCOCC1 ? 0.02 to 0.2 µM

----------
This section presents molecules with their documented pIC50 values.
- TARGET_OF_ASSAY: EGFR mutant T790M (Homo sapiens, UniProt P00533, T790M)
- Construct: truncated human JAK3, EGFR mutants such as del E746-A750
- Sequence (P00533 669-1210 T790M limits assumed): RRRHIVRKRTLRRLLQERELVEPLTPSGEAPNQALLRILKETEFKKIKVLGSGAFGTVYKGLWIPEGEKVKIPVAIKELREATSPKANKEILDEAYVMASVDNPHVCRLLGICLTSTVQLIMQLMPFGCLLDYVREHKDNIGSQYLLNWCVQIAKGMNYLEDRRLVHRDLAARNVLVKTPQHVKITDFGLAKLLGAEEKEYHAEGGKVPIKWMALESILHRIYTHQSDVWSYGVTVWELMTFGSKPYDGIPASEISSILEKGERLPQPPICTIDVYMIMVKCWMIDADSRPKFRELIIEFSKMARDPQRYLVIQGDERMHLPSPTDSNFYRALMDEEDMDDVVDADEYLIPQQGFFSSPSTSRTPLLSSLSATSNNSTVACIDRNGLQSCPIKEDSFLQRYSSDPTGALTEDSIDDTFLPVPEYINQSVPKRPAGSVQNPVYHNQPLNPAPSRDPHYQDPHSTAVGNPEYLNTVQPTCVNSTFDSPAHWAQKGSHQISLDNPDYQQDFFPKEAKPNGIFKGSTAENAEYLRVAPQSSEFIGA
- ASSAY_NAME: Kinase inhibition assay, EGFR mutant T790M;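 further: truncated human EGFR mutant enzyme preincubated two hours with compound, then ATP plus ULight-PolyGT peptide for one hour, Europium-labeled antibody LANCE detection, IC50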
- CONDITION_DETAILS: biochemical potency
pIC50: −log10 of the molar value.

# example entries with known answers
> print(dat)
                                   molecule                           target.of.assay  readout.value
1  C=CC(=O)Nc1cc(Nc2ncc(C)c(-n3cc(CN4CCC4)cn3)n2)c(OC)cc1N1CCN(C(C)=O)CC1  EGFR mutant T790M (Homo sapiens, UniProt P00533, T790M)         > 7.70
2  C=CC(=O)Nc1cc(Nc2ncc(C)c(-n3cc(CN4CCC4)cn3)n2)c(OC)cc1N1CCN(C)CC1  EGFR mutant T790M (Homo sapiens, UniProt P00533, T790M)         > 7.70
3  C=CC(=O)Nc1cc(Nc2nccc(-n3cc(CN4CCC4)c(C)n3)n2)c(OC)cc1N1CCN(C)CC1  EGFR mutant T790M (Homo sapiens, UniProt P00533, T790M)         > 7.70
4  Cc1cc(Nc2nccc(-n3cc(CN4CC[C@@H](O)C4)c(C)n3)n2)cc(C)c1OCCN1CCCC1 [Compound 148, reference compound]  EGFR mutant T790M (Homo sapiens, UniProt P00533, T790M)         < 6.00
5  C=CC(=O)Nc1cc(Nc2ncc(C)c(-n3cc(CN4C[C@H](O)[C@H](OC)C4)cn3)n2)c(OC)cc1N1CCOCC1  EGFR mutant T790M (Homo sapiens, UniProt P00533, T790M)         > 7.70

Item C=CC(=O)Nc1cc(Nc2ncc(C)c(-n3cc(CN4CC(O)C4)c(C)n3)n2)c(OC)cc1N(C)CCN(C)C has what recorded pIC50? > 7.70

May I ask what pIC50 has been recorded for C=CC(=O)Nc1cc(Nc2nccc(-n3cc(CN4CC(F)C4)c(C)n3)n2)c(OC)cc1N1CCOCC1 ? 6.70 to 7.70

----------
pIC50 reference
- TARGET_OF_ASSAY: EGFR mutant L858R (Homo sapiens, UniProt P00533, L858R)
- Construct: truncated human JAK3, EGFR mutants such as del E746-A750; purchased Carna Biosciences
- ASSAY_NAME: Kinase inhibition assay, EGFR L858R;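 further: truncated human EGFR L858R kinase with compound preincubation, ULight-PolyGT peptide phosphorylation read by Europium-antibody Lance detection, IC50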
- Type: biochemical
- CONDITION_DETAILS: read-out: EGFR mutants L858R
pIC50: −log10 of the molar value.

Look over these answered cases.
> print(dat)
                                 smiles.str                           target.of.assay  readout.value
1  C=CC(=O)Nc1cc(Nc2ncc(C)c(-n3cc(CN(C)C)c(C)n3)n2)c(OC)cc1N1CCOCC1  EGFR mutant L858R (Homo sapiens, UniProt P00533, L858R)         > 7.70
2  C=CC(=O)Nc1cc(Nc2ncc(C)c(-n3cc(CN4CCOCC4)cn3)n2)c(OC)cc1N1CCN(C)CC1  EGFR mutant L858R (Homo sapiens, UniProt P00533, L858R)   6.70 to 7.70
3  C=CC(=O)Nc1cc(Nc2nccc(-n3cc(CN4CCC4)c(C4CC4)n3)n2)c(OC)cc1N1CCOCC1  EGFR mutant L858R (Homo sapiens, UniProt P00533, L858R)         > 7.70

Now consider the entry below.
Requested field: pIC50. Item: C=CC(=O)Nc1cc(Nc2nccc(-n3cc(CN(C)C)c(-c4cc(C)ccc4C)n3)n2)c(OC)cc1N1CCOCC1 6.70 to 7.70
